# Procedure summary: chemical genetic growth profiling, strain panel (AID 1159580);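 further: tested at 20 µM; growth read once vehicle control cultures reached saturation at 30 °C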
# Condition summary: S. cerevisiae deletion strains, growth OD, locus YDR334W, strain swr1, active compounds read low
Screen size: about 5,500 compounds; about 2,000 (36%) were called active. About 18% were inconclusive and are not listed. The list shows a part of the results.
One threshold, 1, splits the recorded normalized growth values: lower ones are T, equal or higher ones are F.

- CN(C)[C@@H]1C(=O)C(C(N)=O)=C(O)[C@@]2(O)C(=O)C3=C(O)c4c(O)ccc(Cl)c4[C@@](C)(O)[C@H]3C[C@@H]12: T

Find out if reported normalized growth for `Oc1cccc(O)c1` is less than 1 T

Find out if reported normalized growth for `O=C(O)c1cc(O)c2c(c1)[C@@H]([C@H]1c3cc(C(=O)O)cc(O)c3C(=O)c3c(O[C@H]4O[C@H](CO)[C@@H](O)[C@H](O)[C@H]4O)cccc31)c1cccc(O[C@H]3O[C@H](CO)[C@@H](O)[C@H](O)[C@H]3O)c1C2=O` is less than 1 F
